Tested on: CCRIS mutagenicity, Ames/micronucleus/aberration tests
assayExplanation: CCRIS mutagenicity studies
conditionParameters: Test System: AMES SALMONELLA TYPHIMURIUM; Strain/Indicator: TA100; Metabolic Activation: NONE; Method: STANDARD PLATE
Calls of active or inactive are those of the source. The rule behind the calls is not given here.
reportedEndpoint: mutagenic call

Recorded results for 5 compounds are shown here.
compound	reportedEndpoint	measValue
N=C1CCC(=N)c2c1c(O)c1ccccc1c2O	mutagenic call	inactive; negative
N#[N+]c1cccc2c1C(=O)c1ccccc1C2=O	mutagenic call	inactive; negative
Nc1ccc2cc(S(=O)(=O)O)cc(O)c2c1N=Nc1ccc([N+](=O)[O-])cc1S(=O)(=O)O	mutagenic call	inactive; negative
Oc1cnc2ccccc2c1	mutagenic call	inactive; negative
COc1cc(N=Nc2ccccc2)ccc1N=Nc1c(S(=O)(=O)O)cc2ccc(N)cc2c1O	mutagenic call	inactive; negative

Your task in this section: give mutagenic call for each listed record.
1. O=P1(Oc2ccccc2)OCc2ccccc2O1 (centres undefined)
2. C=Cc1ccncc1
3. O=[N+]([O-])c1ccc(Oc2c(Cl)cc(Cl)cc2Cl)cc1
4. CC1=C[C@@H]2c3cccc4[nH]cc(c34)C[C@H]2N(C)C1
5. C[C@H]1CCCC(=O)CCCCCc2cc(O)cc(O)c2C(=O)O1
6. CC1=CC(=O)c2ccccc2C1=O
7. Cc1nc2c(c3[nH]c4ccccc4c13)C(=O)C=CC2=O

Resp:
["active; positive", "inactive; negative", "inactive; negative", "inactive; negative", "inactive; negative", "inactive; negative", "inactive; negative"]

For the 8 compounds below, give their mutagenic call values.
1. CCOC(=O)[C@H]1O[C@@H]1C(=O)N[C@@H](CC(C)C)C(=O)NCCC(C)C
2. O=[Si]=O
3. CC(=O)OC1Cc2ccc3ccc4cccc5cc1c2c3c45 (centres undefined)
4. CC(C)=C[C@@H]1[C@@H](C(=O)OCc2coc(Cc3ccccc3)c2)C1(C)C
5. CC(=O)c1ccc(NO)cc1
6. CC(Br)C(=O)NCc1ccc(Cl)cc1 (centres undefined)
7. CCN(CCCl)c1ccc(OCCCCCNc2c3ccccc3nc3ccccc23)cc1
8. O=C(O)CCCc1c[nH]c2ccccc12

Resp:
["inactive; negative", "inactive; negative", "active; positive", "inactive; negative", "active; positive", "active; positive", "active; positive", "inactive; negative"]

Provide mutagenic call values for the following items, in order.
1. CC1=CC(=O)c2nc(C)c3c([nH]c4ccccc43)c2C1=O
2. Nc1cc2[nH]c3ccccc3c2cc1[N+](=O)[O-]
3. CC1=C(C(=O)Nc2ccccc2)SCCO1
4. O=C(O)[C@@H]1CS[C@H](c2ccccc2O)N1C(=O)CCSSCCC(=O)N1[C@@H](c2ccccc2O)SC[C@H]1C(=O)O
5. NC(=O)CCC(=O)Nc1ccc(Cl)cc1
6. CN(C)c1ccc(C(=C2C=CC(=[N+](C)C)C=C2)c2ccc(N(C)C)cc2)cc1
7. C[C@@H]1O[C@@H](O[C@H]2[C@H](O[C@H]3[C@H](O[C@H]4CC[C@@]5(C)[C@@H](CC[C@]6(C)[C@@H]5CC=C5[C@@H]7CC(C)(C)C[C@@H](O)[C@]7(C)CC[C@]56C)[C@@]4(C)CO)O[C@H](C(=O)O)[C@@H](O)[C@@H]3O)O[C@H](CO)[C@H](O)[C@@H]2O)[C@H](O)[C@H](O)[C@H]1O

Resp:
["active; positive", "inactive; negative", "inactive; negative", "inactive; negative", "inactive; negative", "inactive; negative", "inactive; negative"]

Fill in mutagenic call for each of the 7 compounds listed.
1. O=PO.O=PO.[Mn+2]
2. CC(=O)c1ccc(S(=O)(=O)NC(=O)NC2CCCCC2)cc1
3. c1cnc2c3c(ccc2c1)C1OC1CC3 (centres undefined)
4. CC(Oc1ccc(Cl)cc1Cl)C(=O)O (centres undefined)
5. O=C1c2ccccc2-c2ccccc21
6. CN(C)CCn1cc[n+](C)c1/C=N/O
7. CNC(=O)ONC(C)=O

Resp:
1. inactive; negative
2. inactive; negative
3. inactive; negative
4. inactive; negative
5. inactive; negative
6. inactive; negative
7. active; positive
